- System: SVR
- procedure details: Antiproliferative activity against mouse SVR cells at 15 ug/mL after 72 hrs
- Format: functional
The following compounds are shown together with reported inhibition at 15 µg/mL values.
property measured: inhibition at 15 µg/mL (%)

>>> reported("C=CCc1cc(-c2ncc(O)cn2)ccc1O")
10
>>> reported("C=CCc1cc(Cc2ccc(O)c(CC=C)c2)ccc1O")
74
>>> reported("C=CCc1cc(C(c2ccc(O)c(CC=C)c2)c2ccccn2)ccc1O")
46
>>> reported("C=CCc1cc(-c2cccc(CC=C)c2O)ccc1O")
81
>>> reported("C=CCc1cccc(-c2cccc(CC=C)c2O)c1O")
57
>>> reported("C=CCc1ccc(O)c(-c2ccc(O)c(CC=C)c2)c1")
85
>>> reported("C=CCc1cc(/C(CC)=C(\\CC)c2ccc(O)c(CC=C)c2)ccc1O")
89
>>> reported("C=CCc1cc(C(=C(Cl)Cl)c2ccc(O)c(CC=C)c2)ccc1O")
76
>>> reported("C=CCc1ccc(O)c(-c2cc(CC=C)ccc2O)c1")
77
>>> reported("C=CCc1cc(C2(c3ccc(O)c(CC=C)c3)CCCCC2)ccc1O")
79
>>> reported("C=CCc1cc(-c2ccc(O)c(CC=C)c2)ccc1O")
56
>>> reported("C=CCc1cc(C(C)(C)c2ccc(O)c(CC=C)c2)ccc1O")
57
